Test system: Wolbachia pipientis
ASSAY TEXT: Anti-Wolbachia Cell-Based Screen
Type: functional
Set-up: scale not given: in the data most compounds retested in dose-response had high values
MEASUREMENT SETUP: 5 µM
Among all 48,000 compounds or so, about 13,000 (27%) showed an effect of 50% or more. This is one part of the list.
RECORDED METRIC: Percent Effect

{"columns": ["MOLECULE", "RECORDED METRIC", "OBSERVED"],
 "data": [
  ["NC(=O)NCC1CCCCN1C(=O)c1cc(F)cc(F)c1 (configuration not stated)", "Percent Effect", "94.01%"],
  ["Cl.OC1CCN(Cc2c(C3CCCNC3)[nH]c3ncccc23)CC1 (configuration not stated)", "Percent Effect", "-8.296%"],
  ["COc1cccc(C(=O)N2CCCCC2CNC(N)=O)c1 (configuration not stated)", "Percent Effect", "4.596%"],
  ["Cc1noc(C)c1S(=O)(=O)N1CCC(Oc2cccnn2)CC1", "Percent Effect", "-5.902%"],
  ["c1cnc2[nH]c(C3CCCC3)c(CN3CCOCC3)c2c1", "Percent Effect", "96.59%"],
  ["COc1ccccc1S(=O)(=O)N1CCC(Oc2cccnn2)CC1", "Percent Effect", "-12.85%"],
  ["Cc1ccccc1OC1CCN(S(=O)(=O)c2c(C)n[nH]c2C)CC1", "Percent Effect", "120.4%"],
  ["COc1ccc(Cc2ncc3c(n2)CN(C(=O)CN(C)C)C3)cc1", "Percent Effect", "-15.7%"],
  ["CN(CC(=O)N(C)C1CCCCC1)C1CCc2ccccc21 (configuration not stated)", "Percent Effect", "-4.106%"],
  ["NC(=O)NCC1CCCCN1C(=O)c1cccc(Cl)c1 (configuration not stated)", "Percent Effect", "109.7%"],
  ["Cc1n[nH]c(C)c1S(=O)(=O)N1CCC(Oc2ccccc2F)CC1", "Percent Effect", "121.8%"],
  ["COCCn1ccnc1C1CCN(Cc2ccccc2C#N)CC1", "Percent Effect", "-0.03291%"]
]}

These measurements were taken from ChEMBL document CHEMBL3988442.
